Tested on: SK-OV-3 ovarian
experimental_protocol: NCI tumour cell line growth inhibition, 48 h
Examples of compounds with documented TGI follow.

compound: CC1CN(c2ccc(Cl)cc2)CC(C)OC(=O)O1 (centres undefined)
target: SK-OV-3 ovarian
TGI: > 100 µM
--
compound: O=C(Cn1c(=O)c(-c2ccccc2)nc2ccccc21)Nc1ccc(F)cc1
target: SK-OV-3 ovarian
TGI: > 100 µM
--
compound: COc1cc2c(cc1O)CC[C@@H]1[C@@H]2CC[C@]2(C)[C@@H](OCCN(C)C)CC[C@@H]12
target: SK-OV-3 ovarian
TGI: 2.11 µM
--
compound: O=C1c2cccc(NCCN=Cc3cc([N+](=O)[O-])ccc3O)c2C(=O)c2c(NCCN=Cc3cc([N+](=O)[O-])ccc3O)cccc21
target: SK-OV-3 ovarian
TGI: > 100 µM
--
compound: O=C(C[n+]1ccc2ccccc2c1)c1ccc2ccc3ccccc3c2c1
target: SK-OV-3 ovarian
TGI: 21 µM
--
compound: Cc1oc2c(C)c3oc(=O)cc(C)c3cc2c1CN1C(=O)C2OCCOCCOCCOCCOCCO[C@H]2C1=O (some centres undefined)
target: SK-OV-3 ovarian
TGI: > 100 µM
--
compound: CCn1c(SCC(=O)NNC(=S)Nc2ccc([N+](=O)[O-])cc2)nc2ccccc2c1=O
target: SK-OV-3 ovarian
TGI: > 100 µM
--
compound: COc1ccc(N=Cc2ccc(N(CCC#N)S(=O)(=O)c3ccccc3)cc2)cc1
target: SK-OV-3 ovarian
TGI: > 100 µM
--
compound: Cc1cc(NCCN(C(C)C)C(C)C)nc(/N=C(\N)Nc2ccc(Cl)c(C(F)(F)F)c2)n1
target: SK-OV-3 ovarian
TGI: 2.55 µM
